Provide the recorded growth inhibition for the entries that follow.
# Assay: growth inhibitors of wild-type E. coli, primary screen, strain BW25113, expanded library, OD600 (AID 710);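 further: growth measured after 20 h incubation at 37 °C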
# Experimental context: OD600 absorbance, at 100 µM, stronger effect = higher value
Screen size: about 98,000 compounds; about 150 (0.15%) were called active. The sample holds actives, similar compounds and a random draw of the others, so the mix is not that of the screen.
Report the value in % with no unit label.

Reported growth inhibition for `COC(=O)c1ccc(CSc2nc3cc(Cl)ccc3o2)cc1` was -5

Reported growth inhibition for `COc1ccc(-c2cn(-c3ccc(C)cc3)c(=O)n2CC(=O)Nc2ccc(OC)c(OC)c2)cc1` was -4

Reported growth inhibition for `CCOc1cccc(SCc2noc(C(=O)NC(C)C)c2C(=O)O)c1` was -4

Reported growth inhibition for `COc1ccc(-n2nc(C(=O)NCC(=O)Nc3cccc(C)n3)c3ccccc3c2=O)cc1` was -15

Reported growth inhibition for `COc1cccc(N(CC(=O)NCCSc2ccccn2)S(C)(=O)=O)c1` was -2

Provenance of the data: PubChem BioAssay AID710
